System: A375
Test: Cell viability of A375 melanoma cells by Trypan Blue exclusion
Assay type: cell-based
Settings: Homo sapiens, A-375; 10 μM, 48 h; viable cells as mean percentage of control cells ± SEM, N=3; read-out: Viab A375 10 μM/48 h
Mark each entry Yes if its viability at 10 µM sits below 20%, and No for all others.

Consider the following illustrative entries.
| structure-smiles-string | class |
| --- | --- |
| N=C(NC(=O)Nc1cccc2ccccc12)Nc1nc2ccccc2s1 | Yes |
| N=C(NC(=O)NC1CC1)Nc1nc2ccccc2s1 | No |
| N=C(NC(=O)Nc1ccccc1)Nc1nc2ccccc2s1 | Yes |

Next item in the queue.
Does COc1ccccc1NC(=O)NC(=N)Nc1nc2ccccc2s1 have viability at 10 µM strictly under 20%? No

----------
Test system: A375
Experiment: Cell viability of A375 melanoma cells by Trypan Blue exclusion
Type: cell-based
Details: Homo sapiens, A-375; 5 μM, 24 h; viable cells as mean percentage of control cells ± SEM, N=3; read-out: Viab A375 5 μM/24 h
Description: The BRAFV600E mutant melanoma line A375 (CRL-1619) was purchased from ATCC (Manassas, VA, USA). […] Cell viability was measured by the Trypan Blue exclusion method. […] An aliquot of the cell suspension was then mixed 1:1 with a 0.4% Trypan blue solution and viable cells were counted within 5 minutes on Kova slides under an optical microscope. Results are expressed as the mean percentage of control cells±SEM. […]
reported-property: viability at 5 µM (%)
Give your result in % as a bare value.

A selection of reference data follows.
| structure-smiles-string | viability at 5 µM / % |
| --- | --- |
| Cc1nc(NC(=N)NC(=O)Nc2ccccc2Cl)sc1C | 31.1 |
| N=C(NC(=O)Nc1ccc(Br)cc1)Nc1nc(-c2cccc([N+](=O)[O-])c2)cs1 | 94.2 |

Quick one: viability at 5 µM for COc1cccc(NC(=O)NC(=N)Nc2nc(-c3cccc([N+](=O)[O-])c3)cs2)c1 ? 115

Quick one: viability at 5 µM for Cc1cccc(NC(=O)NC(=N)Nc2nc(C)c(C)s2)c1 ? 56.5

Quick one: viability at 5 µM for Cc1cccc(NC(=O)NC(=N)Nc2nc(-c3cccc([N+](=O)[O-])c3)cs2)c1 ? 95.4

Quick one: viability at 5 µM for N=C(NC(=O)Nc1cccc(Cl)c1)Nc1nc2ccccc2s1 ? 93.5

----------
System: A375
Assay: Cell viability of A375 melanoma cells by Trypan Blue exclusion
Assay type: cell-based
Conditions: Homo sapiens, A-375; 10 μM, 24 h; viable cells as mean percentage of control cells ± SEM, N=3; read-out: Viab A375 10 μM/24 h
reported-property: viability at 10 µM (%)
Give your result in % as a bare value.

| structure-smiles-string | viability at 10 µM, % |
| --- | --- |
| N=C(NC(=O)Nc1cccc2ccccc12)Nc1nc2ccccc2s1 | 41 |
| N=C(NC(=O)NC1CC1)Nc1nc2ccccc2s1 | 51.5 |
| Cc1cccc(NC(=O)NC(=N)Nc2nc3ccccc3s2)c1 | 48.9 |
| COc1ccccc1NC(=O)NC(=N)Nc1nc2ccccc2s1 | 56.8 |
| N=C(NC(=O)Nc1cccc(Cl)c1)Nc1nc2ccccc2s1 | 58.3 |

Quick one: viability at 10 µM for N=C(NC(=O)Nc1ccccc1)Nc1nc2ccccc2s1 ? 32.7
